target.or.test.system: α6(R100H)β2γ2 GABAA receptor (Homo sapiens, UniProt P18507+P47870+Q16445, R119H)
Sequence (Q16445 20-453 R119H): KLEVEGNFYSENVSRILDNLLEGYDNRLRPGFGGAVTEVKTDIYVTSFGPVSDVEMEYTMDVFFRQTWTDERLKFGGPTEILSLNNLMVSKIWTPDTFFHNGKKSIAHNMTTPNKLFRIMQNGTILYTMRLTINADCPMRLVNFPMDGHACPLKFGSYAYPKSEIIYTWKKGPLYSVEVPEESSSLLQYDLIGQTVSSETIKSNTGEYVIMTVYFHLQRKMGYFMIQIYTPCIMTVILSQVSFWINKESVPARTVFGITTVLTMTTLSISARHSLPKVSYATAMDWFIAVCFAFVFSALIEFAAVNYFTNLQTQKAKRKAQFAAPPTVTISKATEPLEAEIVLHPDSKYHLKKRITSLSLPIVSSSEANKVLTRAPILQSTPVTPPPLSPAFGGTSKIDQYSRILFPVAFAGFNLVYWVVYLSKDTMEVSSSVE
Sequence (P47870 26-474 isoform P47870-1 limits assumed, stated change not applied): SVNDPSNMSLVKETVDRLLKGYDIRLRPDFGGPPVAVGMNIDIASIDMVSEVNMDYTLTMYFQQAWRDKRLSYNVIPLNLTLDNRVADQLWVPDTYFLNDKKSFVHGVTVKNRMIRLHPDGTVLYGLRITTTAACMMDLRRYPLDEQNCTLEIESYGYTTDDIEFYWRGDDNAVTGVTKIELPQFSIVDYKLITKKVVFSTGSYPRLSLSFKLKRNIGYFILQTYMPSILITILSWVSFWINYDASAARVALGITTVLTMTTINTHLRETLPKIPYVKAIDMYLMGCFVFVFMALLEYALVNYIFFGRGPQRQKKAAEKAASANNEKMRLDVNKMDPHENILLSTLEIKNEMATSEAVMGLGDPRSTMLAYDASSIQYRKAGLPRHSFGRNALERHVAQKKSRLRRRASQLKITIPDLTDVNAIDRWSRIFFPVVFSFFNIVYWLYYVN
Sequence (P18507 40-467 isoform P18507-1 limits assumed, stated change not applied): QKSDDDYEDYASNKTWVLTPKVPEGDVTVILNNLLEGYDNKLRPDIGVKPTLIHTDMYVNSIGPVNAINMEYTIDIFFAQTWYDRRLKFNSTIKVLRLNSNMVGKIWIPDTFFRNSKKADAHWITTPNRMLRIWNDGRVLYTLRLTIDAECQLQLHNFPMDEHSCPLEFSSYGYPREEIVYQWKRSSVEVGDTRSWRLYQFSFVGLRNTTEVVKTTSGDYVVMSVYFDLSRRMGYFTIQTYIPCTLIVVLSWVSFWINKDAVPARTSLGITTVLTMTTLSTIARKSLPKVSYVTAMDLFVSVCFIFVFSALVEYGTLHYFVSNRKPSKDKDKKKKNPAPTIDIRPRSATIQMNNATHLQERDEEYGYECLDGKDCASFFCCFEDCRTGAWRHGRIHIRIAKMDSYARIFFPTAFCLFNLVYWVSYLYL
test.summary: Midazolam potentiation of EC10 GABA currents, whole-cell patch clamp, HEK293T
endpoint: EC50 (nM)
Report the value in nM with no unit label.

Task: What does the data say about its EC50? Entry: "Cc1ncc2n1-c1ccc(Cl)cc1C(c1ccccc1F)=NC2"
Result: 41.9

----------
target.or.test.system: α1β2γ2 GABAA receptor (Homo sapiens, UniProt P14867+P18507+P47870)
Sequence (P14867 28-456): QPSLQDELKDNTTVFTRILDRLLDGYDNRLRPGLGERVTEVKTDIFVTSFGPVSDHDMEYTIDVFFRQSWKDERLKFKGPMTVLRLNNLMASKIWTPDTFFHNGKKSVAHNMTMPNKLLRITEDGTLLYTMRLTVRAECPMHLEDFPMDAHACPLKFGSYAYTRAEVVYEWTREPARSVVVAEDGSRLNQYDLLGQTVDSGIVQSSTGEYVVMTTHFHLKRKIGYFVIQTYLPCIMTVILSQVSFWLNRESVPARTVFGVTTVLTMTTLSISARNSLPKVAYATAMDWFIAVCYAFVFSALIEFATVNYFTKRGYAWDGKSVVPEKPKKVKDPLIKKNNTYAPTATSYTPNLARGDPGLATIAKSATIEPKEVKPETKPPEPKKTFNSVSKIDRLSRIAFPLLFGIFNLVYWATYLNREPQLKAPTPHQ
Sequence (P47870 26-474 isoform P47870-1 limits assumed): as the sequence (P47870 26-474 isoform P47870-1 limits assumed, stated change not applied) above
Sequence (P18507 40-467 isoform P18507-1 limits assumed): as the sequence (P18507 40-467 isoform P18507-1 limits assumed, stated change not applied) above
test.summary: Midazolam potentiation of EC10 GABA currents, whole-cell patch clamp, HEK293T
endpoint: EC50 (nM)
Report the value in nM with no unit label.

Task: What does the data say about its EC50? Entry: "Cc1ncc2n1-c1ccc(Cl)cc1C(c1ccccc1F)=NC2"
Result: 71.4

----------
target.or.test.system: α5(P166T)β2γ2 GABAA receptor (Homo sapiens, UniProt P18507+P31644+P47870, P197T)
test.summary: Midazolam potentiation of EC10 GABA currents, whole-cell patch clamp, HEK293T
endpoint: EC50
Quick note: number first, unit second.

Task: What does the data say about its EC50? Entry: "Cc1ncc2n1-c1ccc(Cl)cc1C(c1ccccc1F)=NC2"
Result: 53.3 nM

----------
target.or.test.system: α5(S209I)β2γ2 GABAA receptor (Homo sapiens, UniProt P18507+P31644+P47870, S240I)
Sequence (P31644 32-462 S240I): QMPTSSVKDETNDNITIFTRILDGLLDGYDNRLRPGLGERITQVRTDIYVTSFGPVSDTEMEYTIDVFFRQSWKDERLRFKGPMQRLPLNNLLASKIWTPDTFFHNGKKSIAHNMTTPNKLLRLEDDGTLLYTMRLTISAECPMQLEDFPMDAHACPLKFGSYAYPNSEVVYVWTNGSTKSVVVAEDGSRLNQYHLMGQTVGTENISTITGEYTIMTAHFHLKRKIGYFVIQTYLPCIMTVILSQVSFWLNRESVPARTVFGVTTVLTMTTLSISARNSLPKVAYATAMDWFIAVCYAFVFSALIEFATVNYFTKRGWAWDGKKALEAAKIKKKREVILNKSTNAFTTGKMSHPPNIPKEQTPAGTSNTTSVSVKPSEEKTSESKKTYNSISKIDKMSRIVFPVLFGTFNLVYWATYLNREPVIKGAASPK
Sequence (P47870 26-474 isoform P47870-1 limits assumed, stated change not applied): as the sequence (P47870 26-474 isoform P47870-1 limits assumed, stated change not applied) above
Sequence (P18507 40-467 isoform P18507-1 limits assumed, stated change not applied): as the sequence (P18507 40-467 isoform P18507-1 limits assumed, stated change not applied) above
test.summary: Midazolam potentiation of EC10 GABA currents, whole-cell patch clamp, HEK293T
endpoint: EC50 (nM)
Report the value in nM with no unit label.

Task: What does the data say about its EC50? Entry: "Cc1ncc2n1-c1ccc(Cl)cc1C(c1ccccc1F)=NC2"
Result: 65.4

----------
target.or.test.system: α2(S205I)β2γ2 GABAA receptor (Homo sapiens, UniProt P18507+P47869+P47870, S233I)
Sequence (P47869 29-451 S233I, one chain of several): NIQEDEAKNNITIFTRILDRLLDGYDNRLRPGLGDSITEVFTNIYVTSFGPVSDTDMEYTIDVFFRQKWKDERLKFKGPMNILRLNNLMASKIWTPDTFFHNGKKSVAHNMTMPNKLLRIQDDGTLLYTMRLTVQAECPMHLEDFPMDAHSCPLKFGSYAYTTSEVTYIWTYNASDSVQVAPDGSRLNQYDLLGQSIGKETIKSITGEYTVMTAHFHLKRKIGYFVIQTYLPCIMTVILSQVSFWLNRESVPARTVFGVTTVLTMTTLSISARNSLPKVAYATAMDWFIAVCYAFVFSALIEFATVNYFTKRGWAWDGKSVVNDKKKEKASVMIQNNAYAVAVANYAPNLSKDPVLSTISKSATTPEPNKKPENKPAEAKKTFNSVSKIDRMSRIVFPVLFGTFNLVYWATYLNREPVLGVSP
test.summary: Midazolam potentiation of EC10 GABA currents, whole-cell patch clamp, HEK293T
endpoint: EC50 (nM)
Report the value in nM with no unit label.

Task: Request - read-out EC50 | tested on α2(S205I)β2γ2 GABAA receptor (Homo sapiens, UniProt P18507+P47869+P47870, S233I) | compound "Cc1ncc2n1-c1ccc(Cl)cc1C(c1ccccc1F)=NC2"
Result: 41.7

----------
target.or.test.system: α3(T187P)β2γ2 GABAA receptor (Homo sapiens, UniProt P18507+P34903+P47870, T215P)
Construct: expressed in transfected cells; host or cells: HEK293T
Sequence (P34903 29-492 T215P): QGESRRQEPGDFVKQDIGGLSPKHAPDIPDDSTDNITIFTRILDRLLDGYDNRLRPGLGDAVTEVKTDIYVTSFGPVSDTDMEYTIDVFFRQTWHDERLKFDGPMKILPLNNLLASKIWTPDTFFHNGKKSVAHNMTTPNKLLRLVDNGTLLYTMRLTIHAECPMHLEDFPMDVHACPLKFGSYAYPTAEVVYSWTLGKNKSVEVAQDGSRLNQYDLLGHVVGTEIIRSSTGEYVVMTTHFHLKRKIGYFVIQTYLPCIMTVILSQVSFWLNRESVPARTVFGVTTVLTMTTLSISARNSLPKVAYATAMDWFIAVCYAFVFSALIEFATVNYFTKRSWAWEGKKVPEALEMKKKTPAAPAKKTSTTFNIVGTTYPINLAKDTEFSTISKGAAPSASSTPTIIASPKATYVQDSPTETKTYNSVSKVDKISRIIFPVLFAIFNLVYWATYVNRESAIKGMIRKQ
Sequence (P47870 25-512 limits assumed): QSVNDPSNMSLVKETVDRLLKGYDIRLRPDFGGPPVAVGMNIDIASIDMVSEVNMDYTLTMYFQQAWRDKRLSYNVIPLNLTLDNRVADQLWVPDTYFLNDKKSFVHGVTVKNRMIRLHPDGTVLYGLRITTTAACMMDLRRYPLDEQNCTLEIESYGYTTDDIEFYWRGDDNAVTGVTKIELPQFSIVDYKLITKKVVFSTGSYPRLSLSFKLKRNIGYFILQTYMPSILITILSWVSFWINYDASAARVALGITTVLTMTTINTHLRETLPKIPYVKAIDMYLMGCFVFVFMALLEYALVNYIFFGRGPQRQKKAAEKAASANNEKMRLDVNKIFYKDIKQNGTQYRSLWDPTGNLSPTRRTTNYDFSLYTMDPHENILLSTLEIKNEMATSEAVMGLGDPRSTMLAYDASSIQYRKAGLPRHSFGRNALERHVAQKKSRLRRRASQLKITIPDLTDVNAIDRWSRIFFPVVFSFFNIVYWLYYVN
Sequence (P18507 40-467 isoform P18507-1 limits assumed, stated change not applied): as the sequence (P18507 40-467 isoform P18507-1 limits assumed, stated change not applied) above
test.summary: Midazolam potentiation of EC10 GABA currents, whole-cell patch clamp, HEK293T
Format: cell-based
endpoint: pEC50
# log scale: pEC50 equals minus log10 of the concentration in mol/L

Task: Request - read-out pEC50 | tested on α3(T187P)β2γ2 GABAA receptor (Homo sapiens, UniProt P18507+P34903+P47870, T215P) | compound "Cc1ncc2n1-c1ccc(Cl)cc1C(c1ccccc1F)=NC2"
Result: 7.26

----------
target.or.test.system: α5β2γ2 GABAA receptor (Homo sapiens, UniProt P18507+P31644+P47870)
Construct: expressed in transfected cells; host or cells: HEK293T
Sequence (P31644 32-462, one chain of several): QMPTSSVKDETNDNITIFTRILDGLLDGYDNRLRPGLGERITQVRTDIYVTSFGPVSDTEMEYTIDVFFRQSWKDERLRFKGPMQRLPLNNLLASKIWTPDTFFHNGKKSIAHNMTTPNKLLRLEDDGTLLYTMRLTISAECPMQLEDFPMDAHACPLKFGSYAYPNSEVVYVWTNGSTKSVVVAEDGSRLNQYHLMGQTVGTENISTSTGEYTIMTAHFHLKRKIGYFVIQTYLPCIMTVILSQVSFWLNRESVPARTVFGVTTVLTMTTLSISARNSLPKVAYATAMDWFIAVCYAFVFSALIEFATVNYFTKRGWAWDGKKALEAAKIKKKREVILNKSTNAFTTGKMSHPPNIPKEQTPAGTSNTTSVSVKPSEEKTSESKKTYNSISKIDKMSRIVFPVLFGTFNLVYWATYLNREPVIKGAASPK
test.summary: Midazolam potentiation of EC10 GABA currents, whole-cell patch clamp, HEK293T
Assay type: cell-based
endpoint: EC50 (nM)
Report the value in nM with no unit label.

Task: Request - read-out EC50 | tested on α5β2γ2 GABAA receptor (Homo sapiens, UniProt P18507+P31644+P47870) | compound "Cc1ncc2n1-c1ccc(Cl)cc1C(c1ccccc1F)=NC2"
Result: 52.8
